This collection of values is drawn from PubChem BioAssay AID1159580.

test: chemical genetic growth profiling, strain panel (AID 1159580);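 note: tested at 20 µM; growth read once vehicle control cultures reached saturation at 30 °C; 1 = growth at the plate median or of vehicle wells; lower values mean less growth of the strain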; details: S. cerevisiae deletion strains, growth OD, locus YGL248W, strain PDE1, hits give low values
The whole screen tested about 5,500 compounds, of which about 2,000 (36%) were called active. Roughly 18% stayed inconclusive and do not appear here. This is one part of the list.

| MOLECULE | normalized growth |
| --- | --- |
| COc1c(Cl)ccc(Cl)c1C(=O)O | 1.01 |
| COc1cc2c(cc1/C=C/C(=O)c1cc(OC)c(OC)cc1OC)OCO2 | 0.996 |
| COC(=O)CCCOc1ccc(Cl)cc1Cl | 1 |
| CN(C)CCOC(=O)COc1ccc(Cl)cc1 | 1.01 |
| CN(C)CCOC(=O)C(c1ccccc1)C1(O)CCCC1 (stereo not drawn) | 1.01 |
| Nc1ccn(C2O[C@H](CO)[C@@H](O)[C@H]2O)c(=O)n1 (stereo partly drawn) | 0.991 |
| COc1cc2c(cc1-c1cc3cc4ccoc4cc3oc1=O)OCO2 | 0.977 |
| NCC(CC(=O)O)c1ccc(Cl)cc1 (stereo not drawn) | 1.02 |
